Data provenance: ChEMBL document CHEMBL1156948

# System: Yersinia pseudotuberculosis YPIII
# Protocol description: Inhibition of T3S in Yersinia pseudotuberculosis YPIII expressing yopE-luxAB at 50 uM after 3 hrs by luciferase reporter gene assay
Collected inhibition values appear next to each entry.
Number only, in %; omit the unit.

Example cases with answers are listed next.
entry_smiles=COc1ccc(Br)c(/C=N/NC(=O)CC#N)c1O readout_type=inhibition unit_spec=% observed_value=25
entry_smiles=COc1cc(Br)cc(/C=N/NC(=O)C(N)=O)c1O readout_type=inhibition unit_spec=% observed_value=9
entry_smiles=O=C(N/N=C/c1cc(Br)ccc1O)c1ccccc1Cl readout_type=inhibition unit_spec=% observed_value=38
entry_smiles=COc1cccc(C(=O)N/N=C/c2cc(Br)ccc2O)c1 readout_type=inhibition unit_spec=% observed_value=44

Briefly, inhibition measured for O=C(N/N=C/c1ccc(Cl)cc1O)c1ccc(Br)cc1 : 27

Briefly, inhibition measured for N#CCC(=O)N/N=C/c1cc(Br)ccc1O : 86

Briefly, inhibition measured for COc1cc(C(=O)N/N=C/c2ccc(O)c(O)c2O)cc(OC)c1OC : 50
